- System: HBV (genotype AeUS)
- assay-info: Test Example 2-1: anti-HBV assay in PXB-cells (fresh human hepatocytes)
- Type: cell-based, hepatitis B virus
- test-context: Hepatitis B virus, Hepatocyte; PXB-cells infected with HBV genotype AeUS, culture supernatant on day 32 post infection; read-out: IC50 HBV-DNA
pIC50: −log10 of the molar value.
Give Condition met when the value for pIC50 is at least 7. Give Condition not met when it is less.

- record-smiles: "O=C(O)c1cn(-c2ccc3nc(N4CCCC4)sc3c2)c(-c2ccc(N3CCCC3)cc2)cc1=O"
  answer-label: "Condition met"
- record-smiles: "CO[C@@H]1CCN(c2ccc(-c3cc(=O)c(C(=O)O)cn3-c3ccc4nc(N5CCOCC5)sc4c3)cc2Cl)C1"
  answer-label: "Condition met"
- record-smiles: "COC[C@H]1CCCN1c1nc2ccc(-n3cc(C(=O)O)c(=O)cc3-c3ccc(N4CCCC4)c(Br)c3)cc2s1"
  answer-label: "Condition met"
- record-smiles: "COCCN1CCN(c2nc3ccc(-n4cc(C(=O)O)c(=O)cc4-c4ccc(N5CCCC5)cc4)cc3s2)CC1"
  answer-label: "Condition met"
- record-smiles: "O=C(O)c1cn(-c2ccc3ncsc3c2)c(-c2ccc(N3CCCC3)cc2)cc1=O"
  answer-label: "Condition not met"
- record-smiles: "COCCN(CCOC)c1nc2ccc(-n3cc(C(=O)O)c(=O)cc3-c3ccc(N4CC[C@@H](OC)C4)c(Cl)c3)cc2s1"
  answer-label: "Condition met"
- record-smiles: "Cc1nc2ccc(-n3cc(C(=O)O)c(=O)cc3-c3ccc(N4CCCC4)c(Br)c3)cc2s1"
  answer-label: "Condition not met"
